Values compiled from patent US8796244B2.

System: Ba/F3-TEL-FGFR3 cells
Test: Ba/F3-TEL-FGFR3 cell proliferation assay (Alamar Blue)
Type: cell-based
Settings: 72 hours, Alamar Blue; read-out: BaF3-TEL-FGFR3 prolif
Counter-ions that a name gives are not always drawn.
endpoint: IC50 (nM)
Please give a number only; it is taken to be in nM.

# lookup: IC50 of NCC1CCN(c2ccc(-c3ccn4c(-c5cccc(NC(=O)NCC(F)(F)F)c5)cnc4c3)cn2)CC1 [Compound 271] 63

Item: CN1CCCC(n2cc(-c3ccn4c(-c5cccc(NC(=O)NCC(F)(F)F)c5)cnc4c3)cn2)C1 (stereo not shown) [Example 38, hydrochloride] 22

Item: O=C(NCC(F)(F)F)Nc1cccc(-c2cnc3cc(-c4cccnn4)ccn23)c1 [Example 9, hydrochloride] 797

Item: CN(C)S(=O)(=O)NCC1CCN(c2ccc(-c3ccn4c(-c5cccc(NC(=O)NCC(F)(F)F)c5)cnc4c3)cn2)CC1 [Compound 272] 51

* * *

Test system: parental wild-type Ba/F3 cells
Assay: Ba/F3 (WT) cell proliferation assay (Alamar Blue)
Type: cell-based
Conditions: Mus musculus, BaF3; 72 hours, Alamar Blue; read-out: BaF3 WT prolif
So basically: is IC50 under 3 µM? Then Met. Not under? Then Not met.

Consider the compound CN1CCC(n2cc(-c3ccn4c(-c5cccc(NC(=O)NCC(F)(F)F)c5)cnc4c3)cn2)CC1 [Example 6] . Is its IC50 strictly less than 3 µM? Met

Item: Nc1nc(-c2ccn3c(-c4cccc(NC(=O)NCC(F)(F)F)c4)cnc3c2)ncc1CN1CCC1 [Compound 259] Met

Item: CN(C)CCCOc1ccc(-c2ccn3c(-c4cccc(NC(=O)NCC(F)(F)F)c4)cnc3c2)cn1 [Example 144] Not met

Item: CCNC(=O)Nc1cccc(-c2cnc3cc(-c4ccc(F)c(C)n4)ccn23)c1 [Example 228] Not met

Item: Nc1nc(-c2ccn3c(-c4cccc(NC(=O)NCC(F)(F)F)c4)cnc3c2)cc(C(F)(F)F)n1 [Example 245] Met

Item: O=C(NCC(F)(F)F)Nc1cc(Cl)cc(-c2cnc3cc(-c4ccnc(C(F)(F)F)n4)ccn23)c1 [Compound 297] Not met

Item: NC1CN(c2ccnc(-c3ccn4c(-c5cccc(NC(=O)NCC(F)(F)F)c5)cnc4c3)n2)C1 [Example 197] Met

Item: O=C(NCC(F)(F)F)Nc1cc(Cl)cc(-c2cnc3cc(-c4ncccn4)ccn23)c1 [Compound 309] Met

Item: COc1cccc(-c2ccn3c(-c4cccc(NC(=O)NCC(F)(F)F)c4)cnc3c2)n1 [Example 101] Met

* * *

So basically: is melting point under 200 °C? Then y. Not under? Then n.

Consider the molecule CC(C)(O)c1cnc(-c2ccn3c(-c4cccc(NC(=O)NCC(F)(F)F)c4)cnc3c2)nc1 . Is its melting point strictly less than 200 °C? y

Item: CN(C)Cc1cnc(-c2ccn3c(-c4cccc(NC(=O)NCC(F)(F)F)c4)cnc3c2)nc1N y

Item: CC(O)c1cnc(-c2ccn3c(-c4cccc(NC(=O)NCC(F)(F)F)c4)cnc3c2)nc1 (stereo not shown) n

Item: N#Cc1ccc(-c2ccn3c(-c4cccc(NC(=O)NCC(F)(F)F)c4)cnc3c2)nn1 n

Item: NC(=O)Nc1cccc(-c2cnc3cc(-c4nncs4)ccn23)c1 n

Item: O=C(NCC(F)(F)F)Nc1cc(F)cc(-c2cnc3cc(-c4ccnc(C(F)(F)F)n4)ccn23)c1 n

Item: CCNC(=O)Nc1cccc(-c2cnc3cc(C#Cc4cncn4C)ccn23)c1 y

Item: O=C(NCC(F)(F)F)Nc1cccc(-c2cnc3cc(-c4nccc(N5CCN(CCO)CC5)n4)ccn23)c1 y

Item: Cn1cncc1C#Cc1ccn2c(-c3cncc(NC(=O)NCC(F)(F)F)c3)cnc2c1 n

Item: CN(C)S(=O)(=O)NCC1CCN(c2ccc(-c3ccn4c(-c5cccc(NC(=O)NCC(F)(F)F)c5)cnc4c3)cn2)CC1 y

Item: N#Cc1cnc(-c2ccn3c(-c4cccc(NC(=O)NCC(F)(F)F)c4)cnc3c2)nc1N [Compound 165B] y

Item: CS(=O)(=O)Nc1nc(-c2ccn3c(-c4cccc(NC(=O)NCC(F)(F)F)c4)cnc3c2)ncc1F n

Item: Nc1nnc(-c2ccn3c(-c4cccc(NC(=O)NCC(F)(F)F)c4)cnc3c2)s1 n

* * *

Tested on: parental wild-type Ba/F3 cells
Assay: Ba/F3 (WT) cell proliferation assay (Alamar Blue)
Type: cell-based
Details: Mus musculus, BaF3, 72 h, read-out: BaF3 WT prolif (μM)
Counter-ions that a name gives are not always drawn.
So basically: is IC50 under 0.7 µM? Then met. Not under? Then not met.

Consider the molecule Nc1cccc(-c2ccn3c(-c4cccc(NC(=O)NCC(F)(F)F)c4)cnc3c2)n1 [Example 106, hydrochloride] . Is its IC50 strictly less than 0.7 µM? met

Item: O=C(NCC(F)(F)F)Nc1cccc(-c2cnc3cc(-c4ccc(CO)cn4)ccn23)c1 [Example 92, formate] met

Item: Cn1cc(C#Cc2ccn3c(-c4cccc(NC(=O)NCC(F)(F)F)c4)cnc3c2)cn1 [Example 56, formate] not met

Item: Nc1cccnc1-c1ccn2c(-c3cccc(NC(=O)NCC(F)(F)F)c3)cnc2c1 [Example 125, hydrochloride] not met

Item: Cc1ccc(-c2ccn3c(-c4cccc(NC(=O)NCC(F)(F)F)c4)cnc3c2)nc1 [Example 91, formate] met

Item: Cn1nc(-c2ccn3c(-c4cccc(NC(=O)NCC(F)(F)F)c4)cnc3c2)ccc1=O [Example 62, hydrochloride] not met

Item: O=C(NCC(F)(F)F)Nc1cccc(-c2cnc3cc(-c4ncccn4)ccn23)c1 [Example 114, hydrochloride] met

Item: O=C1CN(c2ncc(-c3ccn4c(-c5cccc(NC(=O)NCC(F)(F)F)c5)cnc4c3)cn2)CCN1 [Example 94, hydrochloride] not met

Item: CN1CC(n2cc(-c3ccn4c(-c5cccc(NC(=O)NCC(F)(F)F)c5)cnc4c3)cn2)C1 [Example 41, formate] not met

Item: O=C(NCC(F)(F)F)Nc1cccc(-c2cnc3cc(-c4nc5c(s4)CNCC5)ccn23)c1 [Example 53, formate] not met

Item: CCOc1cccc(-c2ccn3c(-c4cccc(NC(=O)NCC(F)(F)F)c4)cnc3c2)n1 [Example 99, bis-hydrochloride] met

Item: COc1cncc(-c2ccn3c(-c4cccc(NC(=O)NCC(F)(F)F)c4)cnc3c2)n1 [Example 90, formate] not met

Item: Nc1cnc(-c2ccn3c(-c4cccc(NC(=O)NCC(F)(F)F)c4)cnc3c2)cn1 [Example 85, formate] met

Item: CC(=O)N1CCC(n2cc(-c3ccn4c(-c5cccc(NC(=O)NCC(F)(F)F)c5)cnc4c3)cn2)CC1 [Example 63, formate] not met

* * *

Field: IC50. Provide a value for each of the compounds that follow.
System: LP-1 cell line (FGF-1/Heparin induced pERK)
Assay: Cell-based pERK ELISA, LP-1 cells
Details: Homo sapiens, LP-1, read-out: LP-1 pERK ELISA (μM)
Where a name gives a salt, the structure may show the parent alone.
Please give a number only; it is taken to be in µM.

# lookup: IC50 of COCCNc1ccc(-c2ccn3c(-c4cccc(NC(=O)NCC(F)(F)F)c4)cnc3c2)nn1 [Example 80, hydrochloride] 0.039

Item: Cc1ccc(-c2ccn3c(-c4cccc(NC(=O)NCC(F)(F)F)c4)cnc3c2)nc1 [Example 91, formate] 0.0079

Item: O=C(NCC(F)(F)F)Nc1cccc(-c2cnc3cc(C#CCCO)ccn23)c1 [Example 19] 0.13

Item: Cc1ccnc(-c2ccn3c(-c4cccc(NC(=O)NCC(F)(F)F)c4)cnc3c2)c1 [Example 97, bis-hydrochloride] 0.0081

Item: O=C(NCC(F)(F)F)Nc1cncc(-c2cnc3cc(-c4cccnn4)ccn23)c1 [Example 20] 1.1

Item: O=C(NCC(F)(F)F)Nc1cccc(-c2cnc3cc(-c4ccc(N5CCCCC5)nc4)ccn23)c1 [Example 49, hydrochloride] 0.017

Item: O=C(NCC(F)(F)F)Nc1cccc(-c2cnc3cc(-c4ccncn4)ccn23)c1 [Example 34, hydrochloride] 0.013

Item: O=C(NCC(F)(F)F)Nc1cccc(-c2cnc3cc(-c4nc5c(s4)CCC5)ccn23)c1 [Example 8] 0.012

Item: COc1ccnc(-c2ccn3c(-c4cccc(NC(=O)NCC(F)(F)F)c4)cnc3c2)n1 [Compound 336] 0.074

* * *

Tested on: Ba/F3-TEL-FGFR3 cells
Assay: Ba/F3-TEL-FGFR3 cell proliferation assay (Alamar Blue)
Assay type: cell-based
Details: 72 hours, Alamar Blue; read-out: BaF3-TEL-FGFR3 prolif
pIC50: −log10 of the molar value.
Param threshold (7) applies to pIC50; output class 1 when value >= threshold, class 0 when value < threshold.

Decide: pIC50 of O=C(NCC(F)(F)F)Nc1cccc(-c2cnc3cc(-c4ccc(C(F)(F)F)nn4)ccn23)c1 [Example 229] >= 7? class 0

Item: COCCNc1nnc(-c2ccn3c(-c4cccc(NC(=O)NCC(F)(F)F)c4)cnc3c2)s1 [Compound 288] class 1

Item: CCN(CC)CCNC(=O)C(C)(C)n1cc(-c2ccn3c(-c4cccc(NC(=O)NCC(F)(F)F)c4)cnc3c2)cn1 [Example 68] class 0

Item: CNC(=O)c1ccc(-c2ccn3c(-c4cccc(NC(=O)NCC(F)(F)F)c4)cnc3c2)nc1 [Example 224] class 1

Item: O=C(NCC(F)(F)F)Nc1cccc(-c2cnc3cc(-c4cnc(C(F)(F)F)nc4)ccn23)c1 [Example 232] class 1

Item: NC1CCN(c2ccc(-c3ccn4c(-c5cccc(NC(=O)NCC(F)(F)F)c5)cnc4c3)cn2)CC1 [Compound 330] class 1
